# target-of-assay: ABCB4 WT (Homo sapiens, UniProt P21439)
# Sequence (P21439 whole entry): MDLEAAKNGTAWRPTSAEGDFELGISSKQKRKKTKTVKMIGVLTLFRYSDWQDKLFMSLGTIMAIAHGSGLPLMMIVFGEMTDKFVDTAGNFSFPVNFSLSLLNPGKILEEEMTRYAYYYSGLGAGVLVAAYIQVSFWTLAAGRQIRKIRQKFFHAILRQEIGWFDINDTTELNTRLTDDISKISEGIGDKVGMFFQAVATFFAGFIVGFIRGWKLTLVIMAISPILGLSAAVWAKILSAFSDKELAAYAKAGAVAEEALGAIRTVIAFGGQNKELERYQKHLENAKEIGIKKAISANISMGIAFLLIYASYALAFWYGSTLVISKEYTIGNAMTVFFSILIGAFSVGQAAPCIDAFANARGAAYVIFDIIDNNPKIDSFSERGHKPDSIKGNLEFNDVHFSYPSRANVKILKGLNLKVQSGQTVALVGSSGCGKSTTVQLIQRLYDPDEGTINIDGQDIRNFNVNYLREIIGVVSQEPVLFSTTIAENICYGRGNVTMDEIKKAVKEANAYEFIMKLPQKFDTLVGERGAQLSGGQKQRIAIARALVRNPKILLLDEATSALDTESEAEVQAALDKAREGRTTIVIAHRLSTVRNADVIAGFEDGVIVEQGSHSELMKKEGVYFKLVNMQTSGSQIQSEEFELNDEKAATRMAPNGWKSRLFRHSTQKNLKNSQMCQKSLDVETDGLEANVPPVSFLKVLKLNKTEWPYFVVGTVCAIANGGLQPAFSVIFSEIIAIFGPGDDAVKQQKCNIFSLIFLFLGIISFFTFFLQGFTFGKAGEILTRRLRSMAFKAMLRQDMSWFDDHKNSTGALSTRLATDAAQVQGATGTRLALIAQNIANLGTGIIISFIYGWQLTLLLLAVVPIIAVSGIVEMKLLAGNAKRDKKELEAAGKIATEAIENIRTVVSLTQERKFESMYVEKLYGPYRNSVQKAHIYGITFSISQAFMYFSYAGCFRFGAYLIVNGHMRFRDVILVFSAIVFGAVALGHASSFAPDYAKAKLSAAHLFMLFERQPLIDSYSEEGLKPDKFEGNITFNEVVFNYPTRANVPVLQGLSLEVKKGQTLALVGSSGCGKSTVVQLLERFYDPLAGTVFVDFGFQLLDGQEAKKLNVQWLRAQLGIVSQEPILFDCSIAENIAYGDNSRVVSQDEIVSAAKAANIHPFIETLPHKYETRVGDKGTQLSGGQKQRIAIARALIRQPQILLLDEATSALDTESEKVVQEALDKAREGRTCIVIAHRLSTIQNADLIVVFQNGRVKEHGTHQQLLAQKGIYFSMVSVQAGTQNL
# run-description: ABCB4 WT assay: HiBit protein expression
# measurement-parameters: HEK-293 cells stably expressing HiBit-tagged ABCB4 WT; 24 h treatment; top concentration 30 μM; read-out: ABCB4 WT EC50, Emax
Could you please report measured EC50 for the items listed next?

molecule	EC50
Cc1cc(C2CC2)nc(C)c1Oc1nc(-c2ccnc(C#N)c2)ccc1NS(C)(=O)=O	< 1 µM
Cc1cc(C2CC2)c(Oc2nc(-c3cncc(C#N)c3)ccc2NS(C)(=O)=O)c(C)n1	< 1 µM
Cc1cc(C)c(Oc2nc(-c3cn[nH]c3)ccc2NS(C)(=O)=O)c(C2CC2)c1	≥ 25 µM
Cc1cc(C(F)(F)F)nc(C2CC2)c1Oc1nc(-c2cncc(Cl)c2)ccc1N(C)S(C)(=O)=O	≥ 25 µM
Cc1cc(C(F)F)nc(C2CC2)c1Oc1nc(-c2cncc(C#N)c2)ccc1S(=O)(=O)NC1CC1	1 to 10 µM
CCS(=O)(=O)Nc1ccc(-c2cncc(C#N)c2)nc1Oc1c(C)cc(C(F)(F)F)nc1C	< 1 µM
CCCS(=O)(=O)Nc1ccc(-c2cncc(C#N)c2)nc1Oc1c(C)cc(C)nc1C	1 to 10 µM
Cc1cc(C)c(Oc2nc(N3CC4CC3CN4C(=O)C3CC3)ccc2NS(C)(=O)=O)c(C)c1 (single isomer, unassigned) [Compound I-19]	≥ 25 µM

Respectfully, I request EC50 for each entry included below.
1. Cc1cc(C)c(Oc2nc(-c3cncc(Cl)c3)ncc2S(N)(=O)=O)c(C)c1Cl
2. Cc1cc(OC(F)(F)F)nc(C)c1Oc1nc(-c2cncc(C#N)c2)ccc1NS(C)(=O)=O
3. Cc1cc(C2CC2)nc(C)c1Oc1nc(N2CCN(C(=O)C3CC3)CC2)ccc1NS(C)(=O)=O
4. Cc1cc(C(F)F)nc(C2CC2)c1Oc1nc(-c2cncc(C#N)c2)ccc1S(=O)(=O)NC1COC1
5. Cc1cc(C)c(Oc2nc(-c3cncc(C(C)(C)O)c3)ccc2NS(C)(=O)=O)c(C)n1
6. Cc1ccc(Oc2nc(-c3cncc(C#N)c3)ccc2NS(C)(=O)=O)c(C)n1
7. Cc1nc(C2CC2)cc(C2CC2)c1Oc1nc(-c2cncc(C#N)c2)ccc1NS(C)(=O)=O

A)
1. ≥ 25 µM
2. < 1 µM
3. 1 to 10 µM
4. 1 to 10 µM
5. ≥ 25 µM
6. < 1 µM
7. ≥ 25 µM
